# protocol: AUClast in Sprague-Dawley rat at 6 mg/kg, iv measured upto 24 hrs by LC-MS/MS analysis
# Format: ADME, organism-based
# Parameters: route intravenous, dose 6 mg/kg, time <=24
# test-conditions: in vivo
measurement-label: AUC(0-t) at 24 h (ng·h/mL)
Only the number, expressed in ng·h/mL, is required.

Need AUC(0-t) at 24 h of CC(=O)O[C@H]1C(=O)[C@@]2(C)[C@H]([C@H](OC(=O)c3ccccc3)[C@]3(O)C[C@H](OC(=O)[C@H](O)[C@@H](NC(=O)c4ccccc4)c4ccccc4)C(C)=C1C3(C)C)[C@]1(OC(C)=O)CO[C@@H]1C[C@@H]2O [PACLITAXEL] , thanks.
2730
